Tested on: normal primary NK cells, pool 1 (3 donors), resting (IL-2 0 ng/mL);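 note: normalised to DMSO-only wells as negative and benzethonium chloride as positive control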
Assay name: percent inhibition of viability; higher = more inhibition
Assay conditions: 72 h; 10000 nM

Compound	percent inhibition of viability, %
O=C(Nc1ccc(-c2ccnc(Nc3ccc(N4CCOCC4)cc3)n2)cc1)C1CCCN1 (stereo not given) [XL019] (max concentration tested 10000 nM)	61.7
CCCCc1nc2cc(/C=C/C(=O)NO)ccc2n1CCN(CC)CC [Pracinostat] (max concentration tested 10000 nM)	90.8
Nc1nc2[nH]cnc2c(=S)[nH]1 [Thioguanine] (max concentration tested 10000 nM)	37.5
COC1=CC(c2cc3ccccc3[nH]2)=N/C1=C\c1[nH]c(C)cc1C [Obatoclax] (max concentration tested 10000 nM)	59
C[C@@H](Oc1cc(-n2cnc3ccc(CN4CCN(C)CC4)cc32)sc1C(N)=O)c1ccccc1C(F)(F)F (max concentration tested 10000 nM)	96.9
